- testedSystem: Guanidinoacetate N-methyltransferase (Homo sapiens)
- experimentSummary: Confirmatory Screen for Target Class Profiling of Small Molecule Inhibitors of Methyltransferases (AID 1745852); further: on the % scale 0 is the no-effect control and ±100 the full control effect
- condition: MTase-Glo luminescence, SAH detection, recombinant enzyme; at 57.3 µM (top of the series)
propertyMeasured: activity change, negative = inhibition
State the result as a value with its unit after it.

- chemicalSmiles: "NS(=O)(=O)c1ccc(Nc2nc(OCC3CCCCC3)c3[nH]cnc3n2)cc1"
  result: "-2.65%"

// batch mode: one activity change, negative = inhibition value per listed entry
1. CN1CCc2c(n(Cc3ccc(C(=O)NO)cc3)c3ccccc23)C1
2. Cc1ccc2c(c1)c1c(n2CCc2ccc(C)nc2)CCN(C)C1
3. Cc1ccccc1-n1c(Cn2nc(-c3cccc(O)c3)c3c(N)ncnc32)nc2cccc(C)c2c1=O
4. CC(C)CNc1ccnc(NCc2csc(-c3ccccc3)n2)n1

["0.311%", "-3.88%", "0%", "-8.39%"]

====

- experimentSummary: Identifying Small Molecule Inhibitors of Pancreatic Cancer Stem Cells (SN12C, Spheroid) (AID 1259360)
- condition: SN12C spheroid viability; series mostly up to 46.1 µM
Records with an inconclusive call do not appear. Activity calls are given as the source filed them. Calls come from the whole dose curve; as a rule, active = well fitted cell-killing curve with a large enough effect; inconclusive = small, poorly fitted or top-dose-only effect, or effect the other way; inactive = flat fitted curve, though single readings scatter.
Pick one and only one: 1 = active, 0 = inactive

Please review the entries below; each comes with its answer.
- chemicalSmiles: "CC(C)(C)c1[nH]cnc1C=c1[nH]c(=O)c(=Cc2ccccc2)[nH]c1=O"
  group: 1
- chemicalSmiles: "COc1cc2c(cc1OC)CC(=O)N(CCCN(C)C[C@H]1Cc3cc(OC)c(OC)cc31)CC2"
  group: 0
- chemicalSmiles: "COc1nc(C)cnc1NS(=O)(=O)c1cccnc1-c1ccc(-c2nnco2)cc1"
  group: 0
- chemicalSmiles: "CCC=CC[C@H]1C(=O)CC[C@@H]1CC(=O)OC"
  group: 0

What call does the record list for "COC(=O)Nc1ccc(-c2nc(N3CCOCC3)c3cnn(C4CCN(C(=O)OC)CC4)c3n2)cc1" ? 1

====

- experimentSummary: qHTS of pediatric cancer cell lines to identify multiple opportunities for drug repurposing: Confirmatory screen for MG 63 (6-TG R) cells (AID 1347119); further: nearly all actives have a fitted effect of over 55% in size
- condition: MG-63 (6-TG resistant) osteosarcoma viability; series mostly up to 45.9 µM
Records with an inconclusive call do not appear. Activity calls are given as the source filed them. Calls follow the shape of the dose curve; as a rule, active = well fitted cell-killing curve with a large enough effect; inconclusive = small, poorly fitted or top-dose-only effect, or effect the other way; inactive = no such curve, though single readings can be large or run the other way.
Pick one and only one: active, inactive

Please review the entries below; each comes with its answer.
- molecule: "C[C@@H]1C[C@H]2[C@@H]3CCC4=CC(=O)C=C[C@]4(C)[C@@]3(F)[C@@H](O)C[C@]2(C)[C@@]1(O)C(=O)CO"
  group: "inactive"
- molecule: "CC(C)n1c(C=C[C@H](O)C[C@H](O)CC(=O)O)c(-c2ccc(F)cc2)c2ccccc21"
  group: "active"
- molecule: "CC(C)CN(C[C@@H](O)[C@H](Cc1ccccc1)NC(=O)O[C@H]1CO[C@H]2OCC[C@H]21)S(=O)(=O)c1ccc(N)cc1"
  group: "inactive"
- molecule: "CCC(C)SSc1ncc[nH]1 (centres undefined)"
  group: "active"

What call does the record list for "Nc1ccc(-c2ccc3ncc4ccc(=O)n(-c5cccc(C(F)(F)F)c5)c4c3c2)cn1" ? active

What call does the record list for "NC(N)=Nc1nc(CSCCC(N)=NS(N)(=O)=O)cs1" ? inactive

What call does the record list for CC1CNc2c(cccc2S(=O)(=O)N[C@@H](CCCN=C(N)N)C(=O)N2CC[C@@H](C)C[C@@H]2C(=O)O)C1 (some centres undefined) ? inactive

What call does the record list for "C[C@@]1(C(=O)Nc2ccc(F)nc2)CCCN1c1nc(Nc2cc(C3CC3)[nH]n2)c2cccn2n1" ? active

What call does the record list for "N#CC(=C1Nc2ccccc2S1)c1ccnc(OCc2ccc(CN3CCOCC3)cc2)n1" ? inactive

Measured values drawn from PubChem BioAssay (NCATS) for this set.
